Tested on: OVCAR-8 ovarian
method_summary: NCI-60 one-dose screen, 48 h (100 = growth as untreated, 0 = no growth, -100 = all killed)
condition_set: 10 µM
Compounds without any hit were thinned out: in the full panel of roughly 83,000, 20% have a hit.
reported_metric: growth (%)
Number only, in %; omit the unit.

growth lookup needed for Cc1ccc(S(=O)(=O)N(C)CCCCCC(=O)O)cc1 , thanks.
103

Queued: CCCCN1C(=O)CC(SC2CC(=O)N(CCCC)C2=O)C1=O (stereo unspecified)
108

Queued: C[C@@H](O)[C@H]1C(=O)N2C(C(=O)O)=C(SC3CN[C@H](C(=O)N(C)C)C3)[C@H](C)[C@H]12 (stereo partly specified)
107

Queued: O=C(NCCCNS(=O)(=O)c1ccc(Cl)cc1)Nc1ccc(-n2cc(-c3ccncc3)c(-c3ccc(Cl)c(O)c3)n2)cc1
36

Queued: CN1CCN(C2=Nc3ccccc3Oc3ccc(Cl)cc32)CC1
107

Queued: Cc1ccc(N=Nc2ccccc2)cc1
106
